# Experimental system: 5α-reductase (Homo sapiens)
# Construct: host or cells: Hs68 human genital skin fibroblasts
# Sequence (P18405 whole entry): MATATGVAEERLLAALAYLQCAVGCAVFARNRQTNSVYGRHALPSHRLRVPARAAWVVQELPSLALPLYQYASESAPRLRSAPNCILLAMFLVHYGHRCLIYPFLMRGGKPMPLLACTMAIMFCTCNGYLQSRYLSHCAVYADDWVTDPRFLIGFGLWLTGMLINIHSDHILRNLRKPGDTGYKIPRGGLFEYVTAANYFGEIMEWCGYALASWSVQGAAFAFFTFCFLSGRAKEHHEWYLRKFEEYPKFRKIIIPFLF
# Protocol text: 5α-Reductase activity in Hs68 human genital skin fibroblasts (conversion of labeled testosterone, TLC analysis)
# Assay type: cell-based
# Run parameters: Hs68, test compound 1.00 µM; Hs68 cells; substrate testosterone 12 µM; incubated four hours; read-out: % Inhibition
Task for the reader: assign each of the following molecules its reported inhibition at 1 µM.

Look at this molecule and give its reported inhibition at 1 µM. O=C1CCC2c3ccccc3CCC2N1 (racemic)
100%

Look at this molecule and give its reported inhibition at 1 µM. COc1ccc2c(c1)CCC1C2CCC(=O)N1C (racemic)
93.2%

Look at this molecule and give its reported inhibition at 1 µM. C[C@]12CCC(=O)N[C@@H]1CCc1cc(Cl)ccc12 (racemic)
34%

Look at this molecule and give its reported inhibition at 1 µM. O=C1CC[C@@H]2c3ccc(Br)cc3CC[C@H]2N1 (racemic)
100%

Look at this molecule and give its reported inhibition at 1 µM. CN1C(=O)CCC2(C)c3ccc(F)cc3CCC12 (racemic)
81.6%

Look at this molecule and give its reported inhibition at 1 µM. CN1C(=O)CC[C@@H]2c3ccc(F)cc3CC[C@H]21 (racemic)
100%

Source of measurements: patent EP0591583B1
